tested on: Vesicular stomatitis virus; assay: Antiviral activity against VSV infected in African green monkey Vero cells assessed as plaque reduction preincubated for 10 mins inocula removed after 1 hr followed by overlaying with 2% methylcellulose and measured after 1 to 2 days by crystal violet staining based assay; type: functional, organism-based
parameter: EC50

chemical_string | measured_target | EC50
O=c1[nH]c(=O)n([C@@H]2O[C@H](CO)[C@@H](O)[C@@H]2O)cc1C#Cc1ccc2c3cccc4cccc(c5cccc1c52)c43 | Vesicular stomatitis virus | 2 to 283 nM

Please turn your attention to the following entry.
Measured EC50, O=c1[nH]c(=O)n([C@H]2C[C@H](O)[C@@H](CO)O2)cc1C#Cc1ccc2c3cccc4cccc(c5cccc1c52)c43 : 2 to 283 nM
